target: human GR (Homo sapiens, UniProt P04150); test: Transrepression Assay (GITAR), TNFα-β-lactamase reporter gene in U937 cells; format: cell-based; design: U937 cells contain an endogenous glucocorticoid receptor (GR); endogenous in cells; host or cells: U937 cells stably transfected with the TNF-α promoter/β-lactamase reporter only; settings: U-937; Table 1; U937 cells; activity repressed by 100 nM dexamethasone = 100%; read-out: Transrepression U937 Cells GITAR Emax (%)
Sequence (P04150 whole entry): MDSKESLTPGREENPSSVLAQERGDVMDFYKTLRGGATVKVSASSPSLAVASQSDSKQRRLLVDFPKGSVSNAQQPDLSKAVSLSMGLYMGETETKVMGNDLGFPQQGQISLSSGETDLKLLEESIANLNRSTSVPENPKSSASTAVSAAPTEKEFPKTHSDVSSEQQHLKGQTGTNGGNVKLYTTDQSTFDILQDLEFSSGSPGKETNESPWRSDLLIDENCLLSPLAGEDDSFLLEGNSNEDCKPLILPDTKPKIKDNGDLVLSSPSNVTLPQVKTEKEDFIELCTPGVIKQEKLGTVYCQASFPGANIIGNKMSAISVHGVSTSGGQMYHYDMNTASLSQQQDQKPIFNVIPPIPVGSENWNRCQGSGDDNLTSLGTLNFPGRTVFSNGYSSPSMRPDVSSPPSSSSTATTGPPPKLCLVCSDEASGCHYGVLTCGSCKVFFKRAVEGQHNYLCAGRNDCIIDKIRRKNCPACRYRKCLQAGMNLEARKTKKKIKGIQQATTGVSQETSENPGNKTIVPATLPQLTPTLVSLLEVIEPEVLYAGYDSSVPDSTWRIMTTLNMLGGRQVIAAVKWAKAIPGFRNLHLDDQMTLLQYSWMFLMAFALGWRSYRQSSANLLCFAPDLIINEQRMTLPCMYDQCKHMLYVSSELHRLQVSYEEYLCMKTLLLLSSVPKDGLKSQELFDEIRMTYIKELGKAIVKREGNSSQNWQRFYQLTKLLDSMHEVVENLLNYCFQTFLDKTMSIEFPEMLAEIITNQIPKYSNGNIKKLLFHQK
PARAMETER MEASURED: Emax (%)
Give bare numbers, in %.

COMPOUND | TARGET OF ASSAY | PARAMETER MEASURED | VALUE
CC(CNC(=O)c1c(F)cccc1CC[C@]1(O)CCC2=Cc3c(cnn3-c3ccc(F)cc3)C[C@@]21C)C(F)(F)F (some centres unmarked) | human GR (Homo sapiens, UniProt P04150) | Emax | 58

Need Emax for each of these compounds.
1. C[C@]12Cc3cnn(-c4ccc(F)cc4)c3C=C1CC[C@@]2(O)CCc1ccccc1C(=O)N1CCCC1
2. CC(C)C(O)(C(N)=O)c1ccccc1CC[C@]1(O)CCC2=Cc3c(cnn3-c3ccc(F)cc3)C[C@@]21C (some centres unmarked)
3. CN(C)S(=O)(=O)NCc1c(F)cccc1CC[C@]1(O)CCC2=Cc3c(cnn3-c3ccc(F)cc3)C[C@@]21C
4. C[C@]12Cc3cnn(-c4ccc(F)cc4)c3C=C1CC[C@@]2(O)CCc1ccccc1S(=O)(=O)C1CC1

Ans.
1. 71
2. 78
3. 70
4. 70

----------
molecular target: human GR (Homo sapiens); experiment: Trans-Activation Modulation of Glucocorticoid Receptor (GRAMMER), MMTV-LUC reporter gene; type: cell-based; set-up: endogenous in cells; settings: A549; read-out: Transactivation A549 Cells GRAMMER Emax (%)
PARAMETER MEASURED: Emax (%)
Numbers only, in %.

// worked examples, Emax included
MOLECULE | Emax, %
CC(=O)Nc1ccccc1CC[C@]1(O)CCC2=Cc3c(cnn3-c3ccc(F)cc3)C[C@@]21C | 55
CC(C)CNC(=O)c1ccccc1CC[C@]1(O)CCC2=Cc3c(cnn3-c3ccc(F)cc3)C[C@@]21C | 24
CCS(=O)(=O)NCc1c(F)cccc1CC[C@]1(O)CCC2=Cc3c(cnn3-c3ccc(F)cc3)C[C@@]21C | 23
CNC(=O)Cc1ccccc1CC[C@]1(O)CCC2=Cc3c(cnn3-c3ccc(F)cc3)C[C@@]21C | 36
C[C@]12Cc3cnn(-c4ccc(F)cc4)c3C=C1CC[C@@]2(O)CCc1cccc(Cl)c1CC(N)=O | 46

Need Emax for each of these molecules.
1. CCCNC(=O)c1ccccc1CC[C@]1(O)CCC2=Cc3c(cnn3-c3ccc(F)cc3)C[C@@]21C
2. C[C@]12Cc3cnn(-c4ccc(F)cc4)c3C=C1CC[C@@]2(O)CCc1ccccc1C(=O)NCC1CC1
3. C[C@]12Cc3cnn(-c4ccc(F)cc4)c3C=C1CC[C@@]2(O)CCc1ccccc1CC(N)=O
4. CC(C(N)=O)c1ccccc1CC[C@]1(O)CCC2=Cc3c(cnn3-c3ccc(F)cc3)C[C@@]21C (single isomer, unassigned)
5. CC(CNC(=O)c1ccccc1CC[C@]1(O)CCC2=Cc3c(cnn3-c3ccc(F)cc3)C[C@@]21C)C(F)(F)F (stereo partly drawn)
6. Cc1ccc(C(N)=O)c(CC[C@]2(O)CCC3=Cc4c(cnn4-c4ccc(F)cc4)C[C@@]32C)c1

Ans.
1. 29
2. 57
3. 37
4. 20
5. 9
6. 36

Need Emax for each of these molecules.
1. CCCNC(=O)c1c(F)cccc1CC[C@]1(O)CCC2=Cc3c(cnn3-c3ccc(F)cc3)C[C@@]21C
2. C[C@]12Cc3cnn(-c4ccc(F)cc4)c3C=C1CC[C@@]2(O)CCc1ccc(Cl)cc1C(N)=O

Ans.
25
24

Need Emax for each of these molecules.
1. CC(C)(C)NC(=O)c1c(F)cccc1CC[C@]1(O)CCC2=Cc3c(cnn3-c3ccc(F)cc3)C[C@@]21C
2. C[C@]12Cc3cnn(-c4ccc(F)cc4)c3C=C1CC[C@@]2(O)CCc1cccc(F)c1CC(N)=O

Ans.
1. 40
2. 38

----------
Can you tell me GITAR > GRAMM % SEP for the items I'm about to list?
Molecular target: UniProt:P04150
Assay: Transrepression Assay (GITAR), TNFα-β-lactamase reporter gene in U937 cells
Format: cell-based
Design: U937 cells contain an endogenous glucocorticoid receptor (GR); endogenous in cells; host or cells: U937 cells stably transfected with the TNF-α promoter/β-lactamase reporter only
Conditions: Table 1; separation of GITAR Emax over GRAMMER Emax
Text: Transrepression Assay (GITAR) This assay assesses the ability of test compounds to control transcription from the TNFα-β-lactamase reporter gene in U937 cells, a human myelomonocytic leukemia cell line that naturally expresses the human GR. The assay measures compound dependent-repression of the TNFa promoter linked to a reporter gene. The human U937 cells that had been stably transfected with the TNF-α promoter driving β-lactamase are used for this assay. […]
Give bare numbers, in %.

// worked examples, GITAR > GRAMM % SEP included
MOLECULE | RESULT UNIT | GITAR > GRAMM % SEP
C[C@]12Cc3cnn(-c4ccc(F)cc4)c3C=C1CC[C@@]2(O)CCc1cccc(F)c1[C@H](N)C(F)(F)F | % | 33
C=C(C)CNC(=O)c1ccccc1CC[C@]1(O)CCC2=Cc3c(cnn3-c3ccc(F)cc3)C[C@@]21C | % | 36
C[C@]12Cc3cnn(-c4ccc(F)cc4)c3C=C1CC[C@@]2(O)CCc1ccccc1NS(=O)(=O)C1CC1 | % | 36
CC(=O)Nc1ccccc1CC[C@]1(O)CCC2=Cc3c(cnn3-c3ccc(F)cc3)C[C@@]21C | % | 23
C[C@]12Cc3cnn(-c4ccc(F)cc4)c3C=C1CC[C@@]2(O)CCc1ccccc1C(=O)NCC1CC1 | % | 1
CCS(=O)(=O)NCc1c(F)cccc1CC[C@]1(O)CCC2=Cc3c(cnn3-c3ccc(F)cc3)C[C@@]21C | % | 37
C[C@]12Cc3cnn(-c4ccc(F)cc4)c3C=C1CC[C@@]2(O)CCc1ccccc1C(=O)N1CCCCC1 | % | 17
C[C@]12Cc3cnn(-c4ccc(F)cc4)c3C=C1CC[C@@]2(O)CCc1ccccc1C(=O)N1CCCC1 | % | 12
CN(C)S(=O)(=O)NCc1c(F)cccc1CC[C@]1(O)CCC2=Cc3c(cnn3-c3ccc(F)cc3)C[C@@]21C | % | 50
CCC(O)(C(N)=O)c1ccccc1CC[C@]1(O)CCC2=Cc3c(cnn3-c3ccc(F)cc3)C[C@@]21C (some centres unmarked) | % | 32

Need GITAR > GRAMM % SEP for each of these molecules.
1. CN(C)S(=O)(=O)c1ccccc1CC[C@]1(O)CCC2=Cc3c(cnn3-c3ccc(F)cc3)C[C@@]21C
2. CC(=O)Cc1ccccc1CC[C@]1(O)CCC2=Cc3c(cnn3-c3ccc(F)cc3)C[C@@]21C
3. C=C(C)CNC(=O)c1c(F)cccc1CC[C@]1(O)CCC2=Cc3c(cnn3-c3ccc(F)cc3)C[C@@]21C

Ans.
1: 17; 2: 18; 3: 43

Need GITAR > GRAMM % SEP for each of these molecules.
1. CCNC(=O)c1ccccc1CC[C@]1(O)CCC2=Cc3c(cnn3-c3ccc(F)c(F)c3)C[C@@]21C
2. CC(CNC(=O)c1c(F)cccc1CC[C@]1(O)CCC2=Cc3c(cnn3-c3ccc(F)cc3)C[C@@]21C)C(F)(F)F (some centres unmarked)
3. C[C@]12Cc3cnn(-c4ccc(F)cc4)c3C=C1CC[C@@]2(O)CCc1ccccc1C(=O)N1CCC1
4. CC(C)(C)NC(=O)c1c(F)cccc1CC[C@]1(O)CCC2=Cc3c(cnn3-c3ccc(F)cc3)C[C@@]21C

Ans.
42
44
17
37

----------
target: human GR (Homo sapiens); assay: Trans-Activation Modulation of Glucocorticoid Receptor (GRAMMER), MMTV-LUC reporter gene; type: cell-based; design: endogenous in cells; details: Table 1; A549 cells; IP = inflection point; read-out: Transactivation A549 Cells GRAMMER IP
PARAMETER MEASURED: pEC50
Numbers only, as −log10 of the molar value.

// worked examples, pEC50 included
MOLECULE | TARGET OF ASSAY | VALUE
Cc1cccc(CC[C@]2(O)CCC3=Cc4c(cnn4-c4cccc(F)c4)C[C@@]32C)c1C(N)=O [Example 191] | human GR (Homo sapiens) | 7.26
CC(C)CNC(=O)c1c(F)cccc1CC[C@]1(O)CCC2=Cc3c(cnn3-c3ccc(F)cc3)C[C@@]21C [Example 61] | human GR (Homo sapiens) | 7.07
CN(C)S(=O)(=O)Nc1c(F)cccc1CC[C@]1(O)CCC2=Cc3c(cnn3-c3ccc(F)cc3)C[C@@]21C [Example 113] | human GR (Homo sapiens) | 6.69

Need pEC50 for each of these molecules.
1. CC(C)[C@@H](C)NC(=O)c1c(F)cccc1CC[C@]1(O)CCC2=Cc3c(cnn3-c3ccc(F)cc3)C[C@@]21C [Example 48]
2. CC(=O)Nc1ccccc1CC[C@]1(O)CCC2=Cc3c(cnn3-c3ccc(F)cc3)C[C@@]21C [Example 14]
3. C[C@]12Cc3cnn(-c4ccc(F)cc4)c3C=C1CC[C@@]2(O)CCc1ccccc1C(=O)N1CCC1 [Example 40]
4. C[C@]12Cc3cnn(-c4ccc(F)cc4)c3C=C1CC[C@@]2(O)CCc1ccccc1C(=O)N1CC(=O)C1 [Example 156]
5. C[C@]12Cc3cnn(-c4ccc(F)cc4)c3C=C1CC[C@@]2(O)CCc1ccccc1S(=O)(=O)C1CC1 [Example 144]
6. C[C@]12Cc3cnn(-c4ccc(F)cc4)c3C=C1CC[C@@]2(O)CCc1ccccc1C(=O)N1CCCC1 [Example 47]
7. C[C@]12Cc3cnn(-c4ccc(F)cc4)c3C=C1CC[C@@]2(O)CCc1cccc(Cl)c1CC(N)=O [Example 197]
8. CC(CNC(=O)c1ccccc1CC[C@]1(O)CCC2=Cc3c(cnn3-c3ccc(F)cc3)C[C@@]21C)C(F)(F)F (stereo partly shown) [Example 31]

Ans.
[7.03, 6.76, 6.64, 6.56, 6.57, 6.71, 6.60, 7.03]

Need pEC50 for each of these molecules.
1. COC(=O)C1(NC(=O)c2ccccc2CC[C@]2(O)CCC3=Cc4c(cnn4-c4ccc(F)cc4)C[C@@]32C)CC1 [Example 26]
2. CCS(=O)(=O)c1ccccc1CC[C@]1(O)CCC2=Cc3c(cnn3-c3ccc(F)cc3)C[C@@]21C [Example 143]
3. C[C@]12Cc3cnn(-c4ccc(F)cc4)c3C=C1CC[C@@]2(O)CCc1cccc(F)c1CNS(=O)(=O)C(Cl)Cl [Example 85]
4. C[C@]12Cc3cnn(-c4ccc(F)cc4)c3C=C1CC[C@@]2(O)/C=C/c1ccccc1S(N)(=O)=O [Example 160]
5. C[C@]12Cc3cnn(-c4ccc(F)cc4)c3C=C1CC[C@@]2(O)CCc1cccc(F)c1CO [Example 148]
6. C[C@]12Cc3cnn(-c4ccc(F)cc4)c3C=C1CC[C@@]2(O)CCc1ccccc1C(=O)N1CCCCC1 [Example 46]
7. CC(C)(C)CNC(=O)c1c(F)cccc1CC[C@]1(O)CCC2=Cc3c(cnn3-c3ccc(F)cc3)C[C@@]21C [Example 55]

Ans.
[7.41, 6.93, 7.03, 6.93, 7.37, 6.75, 6.76]
